Quick record of MIC values for S. pneumoniae SP030.

Below, each entry is followed by its recorded MIC result.
chemical_smiles	MIC
CC[C@@H]1OC(=O)[C@H](C)[C@H](O[C@@H]2C[C@](C)(OC)[C@H](OC(=O)CCNCCSc3ccc4c(c3)c(=O)c(C(=O)O)cn4CC)[C@H](C)O2)[C@@H](C)[C@H](O[C@@H]2O[C@H](C)C[C@H](N(C)C)[C@@H]2O)[C@](C)(O)C[C@H](C)CN(C)[C@@H](C)[C@@H]2OC(=O)O[C@@]12C	≤ 1 µg/mL
CC[C@H]1OC(=O)[C@H](C)[C@@H](O[C@H]2C[C@@](C)(OC)[C@@H](OC(=O)CCOCCNc3cc4c(=O)c(C(=O)O)cn(C5CC5)c4cc3Cl)[C@H](C)O2)[C@H](C)[C@@H](O[C@@H]2O[C@H](C)C[C@H](N(C)C)[C@H]2O)[C@](C)(O)C[C@@H](C)CN(C)[C@H](C)[C@@H](OC)[C@]1(C)O	≤ 1 µg/mL

Alright, here's another compound for you.
*Q* Please state recorded MIC (tested on S. pneumoniae SP030) of "CC[C@H]1OC(=O)[C@H](C)[C@@H](O[C@H]2C[C@@](C)(OC)[C@@H](OC(=O)CCOCCNc3cc4c(=O)c(C(=O)O)cn(C5CC5)c4cc3Cl)[C@H](C)O2)[C@H](C)[C@@H](O[C@@H]2O[C@H](C)C[C@H](N(C)C)[C@H]2O)[C@](C)(OC)C[C@@H](C)C(=O)[C@H](C)[C@@H](O)[C@]1(C)O"
*A* ≤ 1 µg/mL
